- ASSAY_TARGET: Transforming protein RhoA (Homo sapiens) (UniProt P61586)
- ASSAY_PROTOCOL: small GTPase panel, fluorescent GTP binding blockade – biochemical, Mg buffer, constant GTP, RhoA, Rac1, Cdc42, mechanism study for Ras-family GTPase inhibitor project, profiling panel (AID 2393)
- ASSAY_CONDITIONS: GST-GTPase beads, BODIPY-GTP binding, flow cytometry, RhoACT, at 100 µM (top of the series)
Calls of active or inactive are those of the source.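 The calls were made as follows: active = none, because compounds meeting the potency rule were filed inconclusive for hitting several proteins; inconclusive = EC50 under 20 µM with over 15% binding change; inactive = the rest.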
METRIC_NAME: GTP binding remaining (% of DMSO)

MOLECULE	GTP binding remaining (% of DMSO)
NS(=O)(=O)c1ccc(N2N=C(c3ccccc3)CC2c2ccccc2Cl)cc1 (centres undefined)	inactive
Cc1ccc(C2CC(c3ccccc3)=NN2c2ccc(S(N)(=O)=O)cc2)cc1 (centres undefined)	inactive
Cc1cccc(C2CC(c3ccccc3)=NN2c2ccc(S(N)(=O)=O)cc2)c1 (centres undefined)	inactive
COc1ccc(C2CC(c3ccc(Br)cc3)=NN2c2ccc(S(N)(=O)=O)cc2)cc1 (centres undefined)	inactive
COc1ccc(-c2cc(CCC(=O)N3CCN(c4cc(C)ccc4C)CC3)on2)cc1	inactive

Can you give me GTP binding remaining (% of DMSO) for all of these, one by one?
1. COc1ccc(C2CC(c3ccc(C(F)(F)F)cc3)=NN2c2ccc(S(N)(=O)=O)cc2)cc1 (centres undefined)
2. COc1ccc(C2CC(c3cccc(C(F)(F)F)c3)=NN2c2ccc(S(N)(=O)=O)cc2)cc1 (centres undefined)
3. COc1ccc(-c2noc(CCC(=O)N3CCC(c4cc(C)ccc4C)CC3)n2)cc1
4. COc1ccc(-c2ccc(CCC(=O)N3CCN(c4cc(C)ccc4C)CC3)[nH]2)cc1

Result string:
1. inactive
2. inactive
3. inactive
4. inactive

---

- ASSAY_TARGET: Transforming protein RhoA (Homo sapiens) (UniProt P61586)
- ASSAY_PROTOCOL: small GTPase panel, fluorescent GTP binding blockade – biochemical, Mg buffer, constant GTP, RhoA, Rac1, Cdc42, mechanism study for Ras-family GTPase inhibitor project, profiling panel (AID 2393)
- ASSAY_CONDITIONS: GST-GTPase beads, BODIPY-GTP binding, flow cytometry, RhoWT, at 100 µM (top of the series)
Activity calls are given as the source filed them.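 The calls were made as follows: active = none, because compounds meeting the potency rule were filed inconclusive for hitting several proteins; inconclusive = EC50 under 20 µM with over 15% binding change; inactive = the rest.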

COMPOUND	GTP binding remaining (% of DMSO)
COc1ccc(C2CC(c3ccc(Br)cc3)=NN2c2ccc(S(N)(=O)=O)cc2)cc1 (centres undefined)	inactive
COc1ccc(-c2cc(CCC(=O)N3CCN(c4cc(C)ccc4C)CC3)[nH]n2)cc1	inactive
COc1cccc(C2CC(c3ccccc3)=NN2c2ccc(S(N)(=O)=O)cc2)c1 (centres undefined)	inactive
COc1ccc(C2CC(C)=NN2c2ccc(S(N)(=O)=O)cc2)cc1 (centres undefined)	inactive

---

- ASSAY_TARGET: Cell division control protein 42 homolog (Homo sapiens) (UniProt P60953)
- ASSAY_PROTOCOL: small GTPase panel, fluorescent GTP binding blockade – biochemical, Mg buffer, constant GTP, RhoA, Rac1, Cdc42, mechanism study for Ras-family GTPase inhibitor project, profiling panel (AID 2393)
- ASSAY_CONDITIONS: GST-GTPase beads, BODIPY-GTP binding, flow cytometry, Cdc42ACT
Active and inactive are the calls of the source.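 Rule for the calls: active = none, because compounds meeting the potency rule were filed inconclusive for hitting several proteins; inconclusive = EC50 under 20 µM with over 15% binding change; inactive = the rest.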
Write down the outcome that applies. Available outcomes: active, inactive

Here's what some known entries look like.
COMPOUND	LABEL_CLASS
COc1ccc(C2CC(c3ccccc3)=NN2c2ccc(S(N)(=O)=O)cc2)cc1 (stereo not given)	active
COc1ccc(C2=NN(c3ccc(S(N)(=O)=O)cc3)C(c3ccc(OC)cc3)C2)cc1 (stereo not given)	inactive
NS(=O)(=O)c1ccc(N2N=C(c3ccccc3)CC2c2cccc(Br)c2)cc1 (stereo not given)	active
COc1ccc(C2CC(c3ccc(C)cc3)=NN2c2ccc(S(N)(=O)=O)cc2)cc1 (stereo not given)	inactive

Next:
Query string: What is the recorded call for this compound in the test? COc1ccc(-c2cc(CCC(=O)N3CCN(c4cc(C)ccc4C)CC3)on2)cc1
Result string: active

---

- ASSAY_TARGET: UniProt P63000
- ASSAY_PROTOCOL: small GTPase panel, fluorescent GTP binding blockade – biochemical, Mg buffer, constant GTP, RhoA, Rac1, Cdc42, mechanism study for Ras-family GTPase inhibitor project, profiling panel (AID 2393)
- ASSAY_CONDITIONS: GST-GTPase beads, BODIPY-GTP binding, flow cytometry, Rac1WT
Calls of active or inactive are those of the source.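 The calls were made as follows: active = none, because compounds meeting the potency rule were filed inconclusive for hitting several proteins; inconclusive = EC50 under 20 µM with over 15% binding change; inactive = the rest.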
Write down the outcome that applies. Available outcomes: 1 (yes) (active), 0 (no) (inactive)

Here's what some known entries look like.
MOLECULE	ASSAY_TARGET	LABEL_CLASS
COc1ccc(-c2noc(CCC(=O)N3CCN(c4cc(C)ccc4C)CC3)n2)cc1	UniProt P63000	1 (yes)
COc1ccc(C2CC(c3ccsc3)=NN2c2ccc(S(N)(=O)=O)cc2)cc1 (stereo not drawn)	UniProt P63000	0 (no)

Next:
Query string: What is the recorded call for this molecule in the test? NS(=O)(=O)c1ccc(N2N=C(c3ccccc3)CC2c2ccc(Br)cc2)cc1 (stereo not drawn)
Result string: 0 (no)

---

- ASSAY_TARGET: UniProt:P63000
- ASSAY_PROTOCOL: small GTPase panel, fluorescent GTP binding blockade – biochemical, Mg buffer, constant GTP, RhoA, Rac1, Cdc42, mechanism study for Ras-family GTPase inhibitor project, profiling panel (AID 2393)
- ASSAY_CONDITIONS: GST-GTPase beads, BODIPY-GTP binding, flow cytometry, Rac1WT
The source made the active and inactive calls.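 The calls were made as follows: active = none, because compounds meeting the potency rule were filed inconclusive for hitting several proteins; inconclusive = EC50 under 20 µM with over 15% binding change; inactive = the rest.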
Write down the outcome that applies. Available outcomes: yes (1) = active, no (0) = inactive

Here's what some known entries look like.
MOLECULE	LABEL_CLASS
NS(=O)(=O)c1ccc(N2N=C(c3ccccc3)CC2c2ccc(Cl)cc2)cc1 (stereo not given)	no (0)
Cc1ccc(C2CC(c3ccccc3)=NN2c2ccc(S(N)(=O)=O)cc2)cc1 (stereo not given)	no (0)
COc1ccc(-c2cc(CCC(=O)N3CCN(c4cc(C)ccc4C)CC3)on2)cc1	yes (1)
COc1ccc(-c2noc(CCC(=O)N3CCC(c4cc(C)ccc4C)CC3)n2)cc1	yes (1)

Next:
Query string: What is the recorded call for this molecule in the test? NS(=O)(=O)c1ccc(N2N=C(c3ccccc3)CC2c2cccc(Cl)c2)cc1 (stereo not given)
Result string: no (0)

---

- ASSAY_TARGET: Cell division control protein 42 homolog (Homo sapiens) (UniProt P60953)
- ASSAY_PROTOCOL: small GTPase panel, fluorescent GTP binding blockade – biochemical, Mg buffer, constant GTP, RhoA, Rac1, Cdc42, mechanism study for Ras-family GTPase inhibitor project, profiling panel (AID 2393)
- ASSAY_CONDITIONS: GST-GTPase beads, BODIPY-GTP binding, flow cytometry, Cdc42ACT
Calls of active or inactive are those of the source.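 How the source made its calls: active means none, because compounds meeting the potency rule were filed inconclusive for hitting several proteins; inconclusive means EC50 under 20 µM with over 15% binding change; inactive means the rest.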
Write down the outcome that applies. Available outcomes: true (1) = active, false (0) = inactive

Here's what some known entries look like.
COMPOUND	ASSAY_TARGET	LABEL_CLASS
NS(=O)(=O)c1ccc(N2N=C(c3ccccc3)CC2c2ccccc2)cc1 (stereo not given)	Cell division control protein 42 homolog (Homo sapiens) (UniProt P60953)	true (1)
COc1ccc(-c2noc(CCC(=O)N3CCN(c4cc(C)ccc4C)CC3)n2)cc1	Cell division control protein 42 homolog (Homo sapiens) (UniProt P60953)	false (0)
NS(=O)(=O)c1ccc(N2N=C(c3ccccc3)CC2c2ccc(Br)cc2)cc1 (stereo not given)	Cell division control protein 42 homolog (Homo sapiens) (UniProt P60953)	true (1)
Cc1ccc(C2CC(c3ccccc3)=NN2c2ccc(S(N)(=O)=O)cc2)cc1 (stereo not given)	Cell division control protein 42 homolog (Homo sapiens) (UniProt P60953)	true (1)

Next:
Query string: What is the recorded call for this compound in the test? COc1cccc(C2CC(c3ccccc3)=NN2c2ccc(S(N)(=O)=O)cc2)c1 (stereo not given)
Result string: true (1)

---

Field: EC50. Provide a value for each of the compounds that follow.
- ASSAY_TARGET: Cell division control protein 42 homolog (Homo sapiens)
- ASSAY_PROTOCOL: small GTPase panel, fluorescent GTP binding blockade – biochemical, Mg buffer, constant GTP, RhoA, Rac1, Cdc42, mechanism study for Ras-family GTPase inhibitor project, profiling panel (AID 2393);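 as to EC50: EC50 marks half change in GTP binding and may reflect gain or loss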
- ASSAY_CONDITIONS: GST-GTPase beads, BODIPY-GTP binding, flow cytometry, Cdc42ACT

Answered cases to consult:
COMPOUND	EC50
COc1ccc(C2CC(c3cccc(C)c3)=NN2c2ccc(S(N)(=O)=O)cc2)cc1 (stereo not given)	1.85 µM
Cc1cccc(C2CC(c3ccccc3)=NN2c2ccc(S(N)(=O)=O)cc2)c1 (stereo not given)	8.35 µM
COc1ccc(C2CC(c3ccsc3)=NN2c2ccc(S(N)(=O)=O)cc2)cc1 (stereo not given)	5.22 µM
COc1ccc(C2CC(C(C)(C)C)=NN2c2ccc(S(N)(=O)=O)cc2)cc1 (stereo not given)	16.4 µM
NS(=O)(=O)c1ccc(N2N=C(c3ccccc3)CC2c2cccc(Cl)c2)cc1 (stereo not given)	5.08 µM
Cc1ccccc1C1CC(c2ccccc2)=NN1c1ccc(S(N)(=O)=O)cc1 (stereo not given)	14.7 µM
NS(=O)(=O)c1ccc(N2N=C(c3ccccc3)CC2c2ccc(Cl)cc2)cc1 (stereo not given)	4.22 µM
COc1ccc(C2CC(c3cccs3)=NN2c2ccc(S(N)(=O)=O)cc2)cc1 (stereo not given)	4.28 µM

Proceeding to the next compound to report its EC50.
Query string: Fill in the blank: the reported EC50 of COc1ccc(C2CC(c3ccccc3OC)=NN2c2ccc(S(N)(=O)=O)cc2)cc1 (stereo not given) is ____.
Result string: 5.28 µM

Data provenance: PubChem BioAssay AID2393
